The measurements presented in this section are drawn from PubChem BioAssay (NCI).

Tested on: NCI-H460 lung
Assay: NCI-60 one-dose screen, 48 h (100 = growth as untreated, 0 = no growth, -100 = all killed)
Details: 10 µM unless noted
This is part of a sample that, as a whole, favours compounds with a hit. Of some 83,000 tested, about 20% had one in any assay.
Measured growth, listed per entry for reference.
Return type: number; implicit unit %.

Here's what some known entries look like.
compound | growth [%]
CCCCCn1c(=N)n(CC(O)COc2cccc(C)c2)c2ccccc21 (stereo not given) | 0.388
Cn1cc(C(=O)NCCC(=N)N)cc1NC(=O)CN=C(N)N | 107
Cc1cccc2c(=O)c3c(sc12)c(NCCNCCO)nc1ccccc13 | 9.95

So, `COc1ccc(S(=O)(=O)c2ccc(C(N)=O)cc2)cc1NC(=O)c1[nH]c(C)c2c1CCCCC2=O` ? Its growth was 70.3

So, `C=CC(=O)N1CC2(CCC(n3nc(-c4ccc(Oc5ccccc5)cc4)c4c(N)ncnc43)CC2)C1` ? Its growth was -76.8

====

Tested on: SF-268 CNS
Assay: NCI-60 one-dose screen, 48 h (100 = growth as untreated, 0 = no growth, -100 = all killed)
Settings: 10 µM unless noted
Compounds without any hit were thinned out: in the full panel of roughly 83,000, 20% have a hit.
measurement.kind: growth (%)
Return type: number; implicit unit %.

compound | target | growth [%]
COc1ccc(-c2csc3c2-n2cccc2C3=O)cc1O | SF-268 CNS | 13
CCC12CCC3c4ccc(O)cc4CCC3C1CC(O)C2O (stereo unspecified) | SF-268 CNS | 103
COc1cc(/C=C/C(=O)C(=Cc2ccc(F)c(F)c2)C(=O)/C=C/c2ccc(O)c(OC)c2)ccc1O | SF-268 CNS | 20

So, `Nc1cccc2c(=S)c3ccccc3[nH]c12` ? Its growth was 92.5

So, CCCCc1ccc(C(O)(CCN2CC3CCC(CC3)C2)c2ccccc2)cc1 (stereo unspecified) ? Its growth was 97.1

So, `Cn1c(=O)c2c(-c3ccccc3F)n(-c3ccc4c(c3)OCO4)cc2n(C)c1=O` ? Its growth was 97.4

====

Tested on: TK-10 renal
Test: NCI-60 one-dose screen, 48 h (100 = growth as untreated, 0 = no growth, -100 = all killed)
Conditions: 10 µM unless noted
The panel holds about 83,000 compounds, 20% with a hit somewhere; the sample as a whole holds those more often.
measurement.kind: growth (%)
Return type: number; implicit unit %.

Here's what some known entries look like.
smiles.entry | readout.units | growth
Cc1nn(CC(=O)O)c2c1C(=O)CC(C)(C)C2 | % | 89.9
CCCCC/C=C\C/C=C/CCCCCCCCNC(=O)Nc1ccc([N+](=O)[O-])cc1 | % | 82.5
NC(=O)c1nc2c([nH]c1=O)CCCC2 | % | 102
CCCCC(=O)N/N=C/c1cc(I)cc(I)c1O | % | 49.3
Cn1c2c(cc(S(=O)(=O)c3ccccc3)c1=O)CCc1c-2cnn1-c1cccc(Cl)c1 | % | 86.5

Attention now turns to another entry.
So, `Cc1cccc2c(=O)c3c(sc12)c(NCCCN)nc1ccccc13` ? Its growth was 29

====

System: U251 CNS
Assay: NCI-60 one-dose screen, 48 h
Details: 10 µM unless noted
This is part of a sample that, as a whole, favours compounds with a hit. Of some 83,000 tested, about 20% had one in any assay. Calls of active or inactive are those of the source. How the source made its calls: active means growth percent below 10; inactive means the rest.
Write down one outcome, taken from t = active, f = inactive

Below are worked cases with known answers.
compound | target | group.label
CCSc1nnc2c3cc(Br)ccc3n(C)c2n1 | U251 CNS | f
c1ccc2cc(-c3n(Cc4ccc5ccccc5n4)c4ccccc4[n+]3Cc3ccc4ccccc4n3)ccc2c1 | U251 CNS | t

Hi, do you know how COC(=O)C1C2CC3c4[nH]c5cc(OC)ccc5c4CCN3CC2CC(OC2CCCCO2)C1OC (stereo unspecified) came out in this test?
f

Hi, do you know how `COc1ccc(OC2=CC(=O)c3ccc(C)nc3C2=O)cc1` came out in this test?
f

Hi, do you know how `Fc1ccccc1Nc1ccc2nnc(-c3ccncc3)n2n1` came out in this test?
f

Hi, do you know how `COc1cc2cc(Oc3ccc(NC(=O)Nc4ccc(Cl)c(C(F)(F)F)c4)cc3)c(C)nc2cc1OCCN1CCCCC1` came out in this test?
t

====

Test system: SN12C renal
Assay: NCI-60 one-dose screen, 48 h
Settings: 10 µM unless noted
The panel holds about 83,000 compounds, 20% with a hit somewhere; the sample as a whole holds those more often. Calls of active or inactive are those of the source. How the source made its calls: active means growth percent below 10; inactive means the rest.
Write down one outcome, taken from yes (active), no (inactive)

compound | group.label
Cc1nc(-c2ccccc2)cc2c(O)c(C(=O)N/N=C/Cc3ccccc3)[nH]c(=O)c12 | no
O=c1[nH]c(-c2ccncc2)nc2sc3c(c12)CCCCCC3 | no
CSc1ccc(OC(C)=O)cc1C | no
O=C(COc1ccc(/C=C2\CSc3ccccc3C2=O)cc1)c1ccc(Cl)cc1 | no
Nc1nc(N)c(C=Nc2ccc(Br)cc2)c(Nc2ccc(Br)cc2)n1 | no

Hi, do you know how COC(=O)/C=C1/CCC2C3CCC4=CC(=O)C(Br)CC4(C)C3C(=O)CC12C (stereo not drawn) came out in this test?
no

Hi, do you know how `Oc1ccc(Cl)cc1CNc1nc2ccccc2[nH]1` came out in this test?
no

====

Tested on: MDA-MB-231 breast
Assay: NCI-60 one-dose screen, 48 h
Conditions: 10 µM unless noted
About 83,000 compounds went through this panel and 20% of them were active in at least one assay; those are over-represented in the sample as a whole. Active and inactive are the calls of the source. The calls were made as follows: active = growth percent below 10; inactive = the rest.
Write down one outcome, taken from T (active), F (inactive)

Below are worked cases with known answers.
molecule | group.label
COc1ccc(NC(=O)COc2ccccc2)c(C(N)=O)c1 | F
c1ccc(-c2n(Cc3ccc4ccccc4n3)c3ccccc3[n+]2Cc2ccc3ccccc3n2)cc1 | T
Nc1cc(Br)c(-c2nnc(CCC(=O)c3nc4ccccc4[nH]3)o2)c(Br)c1 | F
COc1cc(/C=C/c2cc(/C=C/c3ccc(O)c(OC)c3)n(-c3ccccc3)n2)ccc1O | T
COc1ccc(-c2c(-c3cc4c(c(OC)c3OC)OCO4)noc2N)cc1 | F
CN(C)C(=S)SCN1C(=O)c2ccc([N+](=O)[O-])cc2S1(=O)=O | F
COC(=O)c1c2c(c(C)[n+]([O-])c1C)C(=O)C=C(NCc1ccc(Cl)cc1)C2=O | T
COc1cc(-c2ccc3cc(OC)c(OC)c(OC)c3c2)cc(OC)c1OC | F
COc1cc(-c2nc(SC(C)C)nc(Nc3cccc(C)c3)c2C#N)cc(OC)c1OC | F
O=c1[nH]c(=O)n(Cc2ccc(F)cc2)cc1F | F

Hi, do you know how CC1SC(c2ccc(Cl)cc2)N(CCc2cccs2)C1=O (stereo not given) came out in this test?
T

Hi, do you know how O=C(c1cnn2c1NC(c1ccc(F)cc1)C2)N1CCCCC1 (stereo not given) came out in this test?
F

====

Measured growth, listed per entry for reference.
System: HT29 colon
Assay: NCI-60 one-dose screen, 48 h (100 = growth as untreated, 0 = no growth, -100 = all killed)
Details: 10 µM unless noted
Compounds without any hit were thinned out: in the full panel of roughly 83,000, 20% have a hit.
Return type: number; implicit unit %.

Here's what some known entries look like.
compound | readout.units | measured.number
COc1ccc(-c2nc(Nc3ccc(F)cc3)nc(Nc3ccc4c(c3)nc(C)n4Cc3ccccc3)n2)cc1 | % | 8.87
COc1cc(/C=C/C(=O)C2=C(/C=C/c3ccc(O)c(OC)c3)NC(=O)NC2c2ccc(O)c(OC)c2)ccc1O (stereo not given) | % | 54.1
O=S(=O)(Nc1ncccn1)c1ccc(Nc2ccc3nnc(-c4ccncc4)n3n2)cc1 | % | 116

So, `Brc1ccc(Br)nn1` ? Its growth was -37.2

So, COc1cc(/C=N/NC(=O)c2cnn3c2NC(c2ccccc2)C3)ccc1OC1CCCC1 (stereo not given) ? Its growth was 11.8

So, `Cn1c2ccccc2c2nn(C(=O)c3ccccc3)c(=O)nc21` ? Its growth was 105

So, `O=C(Nc1ccc(Cl)c(Cl)c1)NC(CO)(CO)CO` ? Its growth was 100

So, `N#C/C(=C\c1ccc[nH]1)c1cc2ccccc2[nH]1` ? Its growth was 80.2

So, `O=C(Nc1ccc(Cl)c(Cl)c1)OCn1ncc2ccc([N+](=O)[O-])cc21` ? Its growth was 103

So, CC(=O)N(CC(O)CO)c1c(I)c(C(=O)NCCO)c(I)c(C(=O)NCC(O)CO)c1I (stereo not given) ? Its growth was 99.9

====

System: UO-31 renal
Experiment: NCI-60 one-dose screen, 48 h
Details: 10 µM unless noted
This is part of a sample that, as a whole, favours compounds with a hit. Of some 83,000 tested, about 20% had one in any assay. Active and inactive are the calls of the source. Rule for the calls: active = growth percent below 10; inactive = the rest.
Write down one outcome, taken from yes (1) (active), no (0) (inactive)

Below are worked cases with known answers.
compound | group.label
COc1ccc(/C=N/NC(=O)c2cnn(CC(O)Cc3ccccc3)c2N)cc1OC1CCCC1 (stereo not given) | no (0)
COc1ccc(OC)c2ncccc12 | no (0)
COc1nc2c(cc1S(=O)(=O)c1ccccc1)CCc1c-2cnn1-c1ccccc1 | yes (1)

Hi, do you know how `O=C(Nc1ccccc1)Oc1cccc2cccnc12` came out in this test?
no (0)

Hi, do you know how `CCN(C(=O)c1ccc2c3c(cccc13)C=C2)c1ccccc1` came out in this test?
no (0)
